Entry source: paper PMC11358092

- Tested on: E. coli MG1655
- ASSAY: High-throughput screening of FDA-approved drug library for antibiotic adjuvants (growth inhibition, OD600)
- Type: cell-based, Escherichia coli
- CONDITION CONTEXT: library drug alone, LB medium, 96-well, 8 h static culture at 37°C, relative to PMBN (positive) and DMSO (negative) controls, %, table head prints no unit

{"columns": ["COMPOUND", "Growth inhibition, Compound"],
 "data": [
  ["CO/N=C(\\C(=O)N[C@@H]1C(=O)N2C(C(=O)O)=C(COC(N)=O)CS[C@H]12)c1ccco1 [Cefuroxime sodium]", "95%"],
  ["CC1CCc2c(N3CCC(O)CC3)c(F)cc3c(=O)c(C(=O)O)cn1c23 (stereo not shown) [Nadifloxacin]", "110%"],
  ["Oc1c(Cl)cc(Cl)cc1Sc1cc(Cl)cc(Cl)c1O [Bithionol]", "86%"],
  ["C=CC1=C(C(=O)O)N2C(=O)[C@@H](NC(=O)/C(=N\\OCC(=O)O)c3csc(N)n3)[C@H]2SC1 [Cefixime]", "109%"]
]}

###

- Tested on: E. coli MG1655
- ASSAY: High-throughput screening of FDA-approved drug library for antibiotic adjuvants (growth inhibition, OD600)
- Format: cell-based, Escherichia coli
- CONDITION CONTEXT: library drug alone, LB medium, 96-well, 8 h static culture at 37°C, relative to PMBN (positive) and DMSO (negative) controls, %, table head prints no unit
Structures can show the parent of a compound that is named as a salt.
ASSAY METRIC: Growth inhibition, Compound (%)

{"columns": ["COMPOUND", "SYSTEM UNDER TEST", "NUMBER"],
 "data": [
  ["CO/N=C(\\C(=O)N[C@@H]1C(=O)N2C(C(=O)O)=C(C[N+]3(C)CCCC3)CS[C@H]12)c1csc(N)n1 [Cefepime Dihydrochloride Monohydrate]", "E. coli MG1655", 83],
  ["COc1ccc(Cc2cnc(N)nc2N)cc1OC [Diaveridine]", "E. coli MG1655", 107],
  ["CCN1CCN(c2cc3c(cc2F)c(=O)c(C(=O)O)cn3C2CC2)CC1 [Enrofloxacin]", "E. coli MG1655", 95],
  ["CO/N=C(\\C(=O)N[C@@H]1C(=O)N2C(C(=O)O)=C(CSc3nc(=O)c(=O)[nH]n3C)CS[C@H]12)c1csc(N)n1 [Ceftriaxone sodium]", "E. coli MG1655", 114],
  ["CC[C@H]1OC(=O)[C@H](C)[C@@H](O[C@H]2C[C@@](C)(OC)[C@@H](O)[C@H](C)O2)[C@H](C)[C@@H](O[C@@H]2O[C@H](C)C[C@H](N(C)C)[C@H]2O)[C@](C)(OC)C[C@@H](C)C(=O)[C@H](C)[C@@H](O)[C@]1(C)O [Clarithromycin]", "E. coli MG1655", 50],
  ["CO/N=C(\\C(=O)N[C@@H]1C(=O)N2C(C(=O)O)=CCS[C@H]12)c1csc(N)n1 [Ceftizoxime]", "E. coli MG1655", 101],
  ["CCN[C@@H]1C[C@H](N)[C@@H](O[C@H]2OC(CN)=CC[C@H]2N)[C@H](O)[C@H]1O[C@H]1OC[C@](C)(O)[C@H](NC)[C@H]1O.CCN[C@@H]1C[C@H](N)[C@@H](O[C@H]2OC(CN)=CC[C@H]2N)[C@H](O)[C@H]1O[C@H]1OC[C@](C)(O)[C@H](NC)[C@H]1O.O=S(=O)(O)O.O=S(=O)(O)O.O=S(=O)(O)O.O=S(=O)(O)O.O=S(=O)(O)O [Netilmicin sulfate]", "E. coli MG1655", 109],
  ["CC(=O)Nc1ncc([N+](=O)[O-])s1 [Nithiamide]", "E. coli MG1655", 87],
  ["CO[C@@]1(NC(=O)Cc2cccs2)C(=O)N2C(C(=O)O)=C(COC(N)=O)CS[C@@H]21 [Cefoxitin sodium]", "E. coli MG1655", 78],
  ["CN1CCN(c2c(F)cc3c(=O)c(C(=O)O)cn4c3c2SCC4)CC1.Cl [Rufloxacin hydrochloride]", "E. coli MG1655", 113],
  ["CO[C@@]1(NC(=O)CSC(F)F)C(=O)N2C(C(=O)[O-])=C(CSc3nnnn3CCO)CO[C@@H]21.[Na+] [Flomoxef sodium]", "E. coli MG1655", 108],
  ["Cc1oc(=O)oc1CN1CCN(c2cc3c(cc2F)c(=O)c(C(=O)O)c2n3C(C)S2)CC1 (stereo not drawn) [Prulifloxacin]", "E. coli MG1655", 100]
]}

###

Entries and their Growth inhibition, Compound values follow.
- Test system: E. coli MG1655
- ASSAY: High-throughput screening of FDA-approved drug library for antibiotic adjuvants (growth inhibition, OD600)
- Type: cell-based, Escherichia coli
- CONDITION CONTEXT: library drug alone, LB medium, 96-well, 8 h static culture at 37°C, relative to PMBN (positive) and DMSO (negative) controls, %, table head prints no unit

{"columns": ["MOLECULE", "Growth inhibition, Compound, %"],
 "data": [
  ["C[C@@H](O)[C@H]1C(=O)N2C(C(=O)[O-])=C(SC3Cn4cnc[n+]4C3)[C@H](C)[C@H]12 (some centres unmarked)", 113],
  ["CC1CCc2cc(F)cc3c(=O)c(C(=O)O)cn1c23 (centres unmarked)", 108],
  ["NC1CCN(c2nc3c(cc2F)c(=O)c(C(=O)O)cn3-c2ccc(F)cc2F)C1 (centres unmarked)", 106],
  ["C=C[C@]1(C)C[C@@H](OC(=O)CS[C@@H]2CC[C@@H](N)C[C@H]2O)C2(C)[C@H](C)CCC3(CCC(=O)[C@H]32)[C@@H](C)[C@@H]1O.CC(=O)O (some centres unmarked) [Lefamulin acetate]", 98],
  ["O=C(Nc1ccc([N+](=O)[O-])cc1Cl)c1cc(Cl)ccc1O [Niclosamide]", 45],
  ["Oc1c(I)cc(I)c2cccnc12", 70],
  ["CN1CCN(c2c(F)cc3c(=O)c(C(=O)O)cn(CCF)c3c2F)CC1", 109],
  ["Cl.NC1CCN(c2nc3c(cc2F)c(=O)c(C(=O)O)cn3-c2ccc(F)cc2F)C1 (centres unmarked) [Tosufloxacin hydrochloride]", 103],
  ["CN[C@@H]1[C@H](O)[C@H](NC)[C@H]2O[C@@]3(O)C(=O)C[C@@H](C)O[C@H]3O[C@@H]2[C@H]1O.Cl.Cl [Spectinomycin dihydrochloride]", 92],
  ["COCC1=C(C(=O)O)N2C(=O)[C@@H](NC(=O)/C(=N\\OC)c3csc(N)n3)[C@H]2SC1 [Cefpodoxime (free acid)]", 108],
  ["O=C(Nc1ccc(Cl)cc1)c1cc(Br)ccc1O", 67],
  ["C/C(=C\\C(=O)OCCCCCCCCC(=O)[O-])C[C@@H]1OC[C@H](C[C@@H]2O[C@H]2[C@@H](C)[C@H](C)O)[C@@H](O)[C@H]1O.C/C(=C\\C(=O)OCCCCCCCCC(=O)[O-])C[C@@H]1OC[C@H](C[C@@H]2O[C@H]2[C@@H](C)[C@H](C)O)[C@@H](O)[C@H]1O.O.O.[Ca+2]", 96],
  ["CC1(C)S[C@@H]2[C@H](NC(=O)Cc3ccccc3)C(=O)N2[C@H]1C(=O)O [Benzylpenicillin potassium]", 55],
  ["CN1CCN(c2c(F)cc3c(=O)c(C(=O)O)cn4c3c2OCN4C)CC1", 108]
]}

###

Entries and their Growth inhibition, Compound values follow.
- Test system: E. coli MG1655
- ASSAY: High-throughput screening of FDA-approved drug library for antibiotic adjuvants (growth inhibition, OD600)
- Assay type: cell-based, Escherichia coli
- CONDITION CONTEXT: library drug alone, LB medium, 96-well, 8 h static culture at 37°C, relative to PMBN (positive) and DMSO (negative) controls, %, table head prints no unit

{"columns": ["MOLECULE", "Growth inhibition, Compound [%]"],
 "data": [
  ["O=C(N[C@H](CO)[C@H](O)c1ccc([N+](=O)[O-])cc1)C(Cl)Cl", 109],
  ["Nc1n[n+]([O-])c2ccccc2[n+]1[O-]", 114],
  ["CC[C@H]1OC(=O)[C@H](C)[C@@H](O[C@H]2C[C@@](C)(OC)[C@@H](O)[C@H](C)O2)[C@H](C)[C@@H](O[C@@H]2O[C@H](C)C[C@H](N(C)C)[C@H]2O)[C@](C)(O)C[C@@H](C)CN(C)[C@H](C)[C@@H](O)[C@]1(C)O [Azithromycin dihydrate]", 111],
  ["Cc1ccc(S(=O)(=O)O)cc1.NC1CCN(c2nc3c(cc2F)c(=O)c(C(=O)O)cn3-c2ccc(F)cc2F)C1.O (stereo not shown) [Tosufloxacin p-Toluenesulfonate Hydrate]", 99],
  ["COc1c(N2C[C@@H]3CCCN[C@@H]3C2)c(F)cc2c(=O)c(C(=O)O)cn(C3CC3)c12 [Moxifloxacin]", 101],
  ["Oc1ccc(Cl)cc1Cc1cc(Cl)ccc1O", 95],
  ["CC1(C)S[C@@H]2[C@H](NC(=O)C(c3ccccc3)S(=O)(=O)O)C(=O)N2[C@H]1C(=O)O.[Na].[Na] (stereo partly shown) [Sulbenicillin Sodium]", 90]
]}
